Property: pKd; scope: individual binders
- System under test: T1, GDF-11 (UniProt O95390 299-407)
- T1 construct: also called growth and differentiation factor 11
- T1 sequence (looked up): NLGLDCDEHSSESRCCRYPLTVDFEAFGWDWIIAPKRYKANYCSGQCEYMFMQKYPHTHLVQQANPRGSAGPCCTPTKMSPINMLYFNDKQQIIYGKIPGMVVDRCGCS
- Protocol text: SPR (Biacore 8K), Fc protein captured on anti-human IgG, ligand injected
pKd: −log10 of the molar value.

[
  {
    "Binder": "ActRIIA-B1B7 (SEQ ID NO: 101) chimera-Fc protein (Fc fusion, Tested as chimera-Fc protein; also called ActRIIA-B1β7; not shown: linker (if any) and Fc domain) GAILGRSETQECIYYNANWEKDRTNQTGVEPCYGDKDKRRHCFATWKNISGSIEIVKQGCWLDDINCYDRTDCVEKKDSPEVYFCCCEGNMCNERFTHLPEMEVTQPTS",
    "pKd": "> 12.00"
  },
  {
    "Binder": "ActRIIB-A8 (SEQ ID NO: 126) chimera-Fc protein (Fc fusion, Tested as chimera-Fc protein; not shown: linker (if any) and Fc domain) GRGEAETRECIYYNANWELERTNQSGLERCEGEQDKRLHCYASWRNSSGTIELVKKGCWLDDFNCYDRQECVATEENPQVYFCCCEGNFCNERFTHLPEMEVTQPTS",
    "pKd": "> 12.00"
  },
  {
    "Binder": "ActRIIB-A5 (SEQ ID NO: 123) chimera-Fc protein (Fc fusion, Tested as chimera-Fc protein; not shown: linker (if any) and Fc domain) GRGEAETRECIYYNANWELERTNQSGLERCEGEQDKRLHCYASWRNSSGTIELVKKGCWLDDINCYDRTDCVATEENPQVYFCCCEGNFCNERFTHLPEAGGPEVTYEPPPTAPT",
    "pKd": 11.25
  },
  {
    "Binder": "ActRIIB-A6 (SEQ ID NO: 124) chimera-Fc protein (Fc fusion, Tested as chimera-Fc protein; not shown: linker (if any) and Fc domain) GRGEAETRECIYYNANWELERTNQSGLERCEGEQDKRLHCYASWRNSSGTIELVKKGCWLDDFNCYDRQECVATKDSPEVYFCCCEGNFCNERFTHLPEAGGPEVTYEPPPTAPT",
    "pKd": "> 12.00"
  },
  {
    "Binder": "ActRIIA-A8 (SEQ ID NO: 110) chimera-Fc protein (Fc fusion, Tested as chimera-Fc protein; not shown: linker (if any) and Fc domain) GAILGRSETQECLFFNANWEKDRTNQTGVEPCYGDKDKRRHCFATWKNISGSIEIVKQGCWLDDINCYDRTDCVEKKDSPEVYFCCCEGNMCNEKFSYFPEAGGPEVTYEPPPTAPT",
    "pKd": "> 12.00"
  },
  {
    "Binder": "ActRIIA-B1B4 (SEQ ID NO: 102) chimera-Fc protein (Fc fusion, Tested as chimera-Fc protein; also called ActRIIA-B1β4; not shown: linker (if any) and Fc domain) GAILGRSETQECIYYNANWEKDRTNQTGVEPCYGDKDKRRHCFATWKNISGTIELVKKGCWLDDINCYDRTDCVEKKDSPEVYFCCCEGNMCNEKFSYFPEMEVTQPTS",
    "pKd": 8.46
  },
  {
    "Binder": "ActRIIA-B2B4 (SEQ ID NO: 103) chimera-Fc protein (Fc fusion, Tested as chimera-Fc protein; not shown: linker (if any) and Fc domain) GAILGRSETQECLEFNANWEKDRTNQSGLERCYGDKDKRRHCFATWKNISGTIELVKKGCWLDDINCYDRTDCVEKKDSPEVYFCCCEGNMCNEKFSYFPEMEVTQPTS",
    "pKd": "> 12.00"
  },
  {
    "Binder": "ActRIIA-B4 (SEQ ID NO: 98) chimera-Fc protein (Fc fusion, Tested as chimera-Fc protein; not shown: linker (if any) and Fc domain) GAILGRSETQECLFFNANWEKDRTNQTGVEPCYGDKDKRRHCFATWKNISGTIELVKKGCWLDDINCYDRTDCVEKKDSPEVYFCCCEGNMCNEKFSYFPEMEVTQPTS",
    "pKd": "> 12.00"
  }
]
